biological target: T1, Ala mutant SEQ ID NO: 43 (human); experiment: ELISA, peptide on plate (10 ug/mL)
T1 sequence (peptide): EENMDDQWMQDEMEIGA
# key: entry, value: absorbance 490 nm/630 nm
Be sure to follow the number with its unit.

Solved entries:
{"BINDER": "G9 (antibody, IgG1, V domains shown) VH: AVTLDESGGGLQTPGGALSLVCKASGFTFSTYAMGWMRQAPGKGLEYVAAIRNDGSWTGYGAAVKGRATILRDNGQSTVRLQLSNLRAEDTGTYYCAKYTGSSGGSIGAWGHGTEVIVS VL: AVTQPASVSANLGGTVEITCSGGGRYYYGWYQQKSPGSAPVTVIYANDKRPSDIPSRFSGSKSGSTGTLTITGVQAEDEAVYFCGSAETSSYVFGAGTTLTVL", "absorbance 490 nm/630 nm": "1.88 OD"}
{"BINDER": "A11 (antibody, IgG1, V domains shown) VH: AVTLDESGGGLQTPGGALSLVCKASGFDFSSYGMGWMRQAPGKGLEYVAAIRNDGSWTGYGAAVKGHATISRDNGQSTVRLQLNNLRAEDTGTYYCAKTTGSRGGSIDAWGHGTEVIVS VL: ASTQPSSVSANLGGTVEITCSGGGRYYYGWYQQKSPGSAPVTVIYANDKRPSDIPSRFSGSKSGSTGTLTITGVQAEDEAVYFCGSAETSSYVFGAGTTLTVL", "absorbance 490 nm/630 nm": "1.92 OD"}

Prompt: Which absorbance 490 nm/630 nm value is on record for G8 (antibody, IgG1, V domains shown) VH: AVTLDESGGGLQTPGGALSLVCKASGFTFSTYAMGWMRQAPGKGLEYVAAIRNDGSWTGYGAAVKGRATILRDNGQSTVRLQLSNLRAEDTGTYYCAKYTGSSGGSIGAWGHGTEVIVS VL: ASTQPSSVSANLGGTVEITCSGGNRNYYYGWYQQKSPGSAPVTLIYANDKRPSNIPSRFSGSKSGSTGTLTITGVQAEDEAVYFCGTADTGKYVFGAGTTLTVL ?
Response: 1.92 OD

Prompt: Entry E9 (antibody, IgG1, V domains shown) VH: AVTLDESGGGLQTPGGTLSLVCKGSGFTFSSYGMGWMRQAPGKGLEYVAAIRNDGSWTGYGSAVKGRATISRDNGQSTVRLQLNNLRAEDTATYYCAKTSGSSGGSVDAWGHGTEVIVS VL: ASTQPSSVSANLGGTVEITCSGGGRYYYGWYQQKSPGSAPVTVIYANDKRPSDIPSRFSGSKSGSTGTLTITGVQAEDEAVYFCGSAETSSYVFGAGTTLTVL has what absorbance 490 nm/630 nm?
Response: 1.88 OD

Prompt: Entry H7 (antibody, IgG1, V domains shown) VH: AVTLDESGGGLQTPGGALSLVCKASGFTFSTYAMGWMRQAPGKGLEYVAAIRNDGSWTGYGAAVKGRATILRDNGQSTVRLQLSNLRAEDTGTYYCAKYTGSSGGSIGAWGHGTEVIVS VL: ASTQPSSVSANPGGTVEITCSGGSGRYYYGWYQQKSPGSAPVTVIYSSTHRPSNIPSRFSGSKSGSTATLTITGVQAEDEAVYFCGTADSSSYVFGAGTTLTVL : reported absorbance 490 nm/630 nm = ?
Response: 1.87 OD

Prompt: Bench note: what absorbance 490 nm/630 nm did G6 (antibody, IgG1, V domains shown) VH: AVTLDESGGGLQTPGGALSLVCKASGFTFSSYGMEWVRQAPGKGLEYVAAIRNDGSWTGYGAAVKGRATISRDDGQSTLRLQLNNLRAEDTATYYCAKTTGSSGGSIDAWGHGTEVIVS VL: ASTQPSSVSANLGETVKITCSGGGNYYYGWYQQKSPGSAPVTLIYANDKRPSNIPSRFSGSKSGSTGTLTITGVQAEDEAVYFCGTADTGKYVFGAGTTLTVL show?
Response: 1.87 OD
